- Tested on: MCF7
- PROTOCOL TEXT: In vitro anticancer activities of complexes (Experiment 2)
- Type: cell-based, human
- STATED CONDITIONS: MCF7, 24 hours
- Description: The cell lines used in the experiments were obtained from Peking University.

SMILES RECORD	IC50 / µM
C#CCN(C)c1ccc2c(c1)[O][Ga-3]13([N+]#CC)([N+]#CC)[O]c4cc(N(C)CC#C)ccc4C=[N+]1C(C#N)=C(C#N)[N+]3=C2.Cl	190
CC#[N+][Ga-3]123([N+]#CC)[O]c4ccccc4C=[N+]1c1ccccc1[N+]2=Cc1ccccc1[O]3.Cl	53
CC#[N+][Ga-3]123([N+]#CC)[O]c4cc(N(C)C)ccc4C=[N+]1C(C#N)=C(C#N)[N+]2=Cc1ccc(N(C)C)cc1[O]3.Cl	0.47
CC#[N+][Ga-3]123([N+]#CC)[O]c4cc(N(CC)CC)ccc4C=[N+]1c1ccncc1[N+]2=Cc1ccc(N(CC)CC)cc1[O]3.Cl	204
